The measured values listed here are drawn from paper PMC8523698.

assay: Solubility measurement; details: standard solubilizing excipients, aqueous with cosolvent or surfactant or cyclodextrin
quantity.name: solubility (µg/mL)
Just the number please, in µg/mL, no unit attached.

Enquiry: Please supply the value of reported solubility for the item `COc1cccc2[nH]c(C(=O)N[C@@H](CC(C)C)C(=O)N[C@@H](C[C@@H]3CCNC3=O)C(=O)CO)cc12`
Return: 500
